Tested on: ANKA strain of P. berghei
Assay: Single dose STI in vivo screen in infected mice
Parameters: species or system Plasmodium berghei
Conditions: single 10 mg/kg po in SSV; untreated 6-7 days
Where a name gives a salt, the structure may show the parent alone.
READOUT_TYPE: Survival (days) 10 mg/kg SSV po

Solved cases below.
Form field Survival (days) 10 mg/kg SSV po, entry O=C1c2ccccc2C(=O)N1[C@H]1CC[C@]2(CC1)OOC1(O2)C2CC3CC(C2)CC1C3 (some centres unmarked) : 6.0/6.0/6.0 days

Value of Survival (days) 10 mg/kg SSV po reported for the molecule OC[C@H]1CC[C@]2(CC1)OOC1(O2)C2CC3CC(C2)CC1C3 (some centres unmarked) is 8.0 days

// Survival (days) 10 mg/kg SSV po value for `O=CN1CCN(C[C@H]2CC[C@]3(CC2)OO[C@]2(O3)C3CC4CC(C3)CC2C4)CC1` : 8.6 days

Documented Survival (days) 10 mg/kg SSV po of O=C(c1ccncc1)N1CCC2(CC1)OOC1(O2)C2CC3CC(C2)CC1C3 (centres unmarked) : 6.3 days

API: the following record is the query input.
Summary for this molecule, C1C2CC3CC1CC(C2)C31OOC2(CCC(NC3CC3)CC2)O1 (centres unmarked) [OZ185, hydrochloride] : Survival (days) 10 mg/kg SSV po is 6.7 days

Hello, the source for this data is patent US6825230B2, in case you need it.
